- targetSystem: human JAK3 (a.a. 781-1124) (Homo sapiens, UniProt P52333)
- Construct: JAK3 (a.a. 781-1124); His tag (N); made in house; host or cells: insect cells (baculovirus)
- Sequence (P52333 781-1124): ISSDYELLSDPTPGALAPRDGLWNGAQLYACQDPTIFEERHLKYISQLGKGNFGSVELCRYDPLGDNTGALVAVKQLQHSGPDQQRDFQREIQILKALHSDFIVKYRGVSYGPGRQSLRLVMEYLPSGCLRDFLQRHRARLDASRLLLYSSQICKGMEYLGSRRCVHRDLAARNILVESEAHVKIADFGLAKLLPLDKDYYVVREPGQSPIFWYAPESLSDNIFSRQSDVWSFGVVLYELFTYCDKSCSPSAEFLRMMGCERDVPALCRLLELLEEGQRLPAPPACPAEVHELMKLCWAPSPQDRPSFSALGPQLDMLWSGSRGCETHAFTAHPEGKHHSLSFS
- assayExplanation: In vitro JAK kinase assay (HTRF, phosphorylation of a biotinylated peptide), JAK3
- Type: biochemical
- details: Table B1
Counter-ions that a name gives are not always drawn.
measuredParameter: log10 IC50 (log10 of the value in nM)
Values below are the log10 of the recorded IC50, with nM as the unit.

COc1cccc(NC(=O)Nc2ccc3cc2CCc2cccc(c2)Nc2ncc(Cl)c(n2)N3)c1 [Example B100, trifluoroacetate]
1.60
Cc1ccc(S(=O)(=O)Nc2ccc3cc2CCc2cccc(c2)Nc2ncc(Cl)c(n2)N3)cc1 [Example B150, trifluoroacetate]
0.80

Just so you know, measured log10 IC50 for CC(=O)Nc1ccc2cc1CCc1cccc(c1)Nc1ncc(Cl)c(n1)N2 [Example B26, trifluoroacetate] came out at 0.87

Just so you know, measured log10 IC50 for O=C(Nc1ccc2cc1CCc1cccc(c1)Nc1ncc(Cl)c(n1)N2)c1nccs1 [Example B52, trifluoroacetate] came out at 1.23

From: patent US8871753B2
